- System: K-562 leukemia
- test-details: NCI-60 one-dose screen, 48 h (100 = growth as untreated, 0 = no growth, -100 = all killed)
- study-conditions: 10 µM unless noted
This is part of a sample that, as a whole, favours compounds with a hit. Of some 83,000 tested, about 20% had one in any assay.
quantity-measured: growth (%)
Answers are plain numbers, in %.

// solved cases for growth follow
compound: Clc1ccc2c(c1)-c1ccccc1C1=NCCN12
growth [%]: 9.07

compound: O=[N+]([O-])c1cccc([I+]c2ccccc2)c1
growth [%]: 27.3

Each compound below has a reported value. Please supply its growth.
1. O=C1c2ccccc2C2N1CCC1CCc3ccccc3N12 (stereo not given)
2. COc1ccc2[nH]c(C(=O)OCc3ccc4c(Br)cc(Br)c(O)c4n3)cc2c1
3. O=S(=O)(NCC[C@@H]1C[C@H]1c1ccc2ccccc2c1)c1ccc(C(F)(F)F)cc1
4. COc1ccc(/C(=C\c2ccc3c(c2)OCO3)C(=O)Nc2nc3ccc(F)cc3s2)cc1OC

89.4
1.4
89.2
101

Each compound below has a reported value. Please supply its growth.
1. Cc1cc(C#Cc2ccccc2)ccc1-n1c(/C=C/c2ccc(F)cc2)nc2ccccc2c1=O
2. CC(C)[C@H](CN)NC[C@H](C)NS(=O)(=O)c1ccc(C(C)(C)C)cc1
3. COc1ccc(C2CC(c3ccc(Nc4ccnc5cc(Cl)ccc45)cc3)=NN2c2ccccc2)cc1 (stereo not given)
4. Cc1ccc(NC(=O)c2nc(S(C)(=O)=O)oc2-c2ccc(F)cc2)cc1Nc1ccc2ncn(C)c(=O)c2c1

1: 48.5; 2: 85.7; 3: 67.9; 4: -22.8
